Hello, the source for this data is BigSolDB 2.1, in case you need it.

# Experimental Setup: in water, 323.15 K

Record Smiles	solubility (mole fraction)
CN1C(C(=O)Nc2ccccn2)=C(O)c2sc(Cl)cc2S1(=O)=O	1.2e-05

###

# Experimental Setup: in PEG-400, 303.15 K

Record Smiles	solubility (mole fraction)
CN1C(C(=O)Nc2ccccn2)=C(O)c2sc(Cl)cc2S1(=O)=O	0.0099

###

# Experimental Setup: in water, 303.15 K

Record Smiles	solubility (mole fraction)
CN1C(C(=O)Nc2ccccn2)=C(O)c2sc(Cl)cc2S1(=O)=O	4.11e-06

###

# Experimental Setup: in PEG-400, 323.15 K
Property Measured: solubility (mole fraction)

Record Smiles	Numeric Result
CN1C(C(=O)Nc2ccccn2)=C(O)c2sc(Cl)cc2S1(=O)=O	0.0171

###

# Experimental Setup: in water, 313.15 K
Property Measured: solubility (mole fraction)

Record Smiles	Numeric Result
CN1C(C(=O)Nc2ccccn2)=C(O)c2sc(Cl)cc2S1(=O)=O	7.41e-06

###

# Experimental Setup: in PEG-400, 298.15 K

Record Smiles	solubility (mole fraction)
CN1C(C(=O)Nc2ccccn2)=C(O)c2sc(Cl)cc2S1(=O)=O	0.00861

###

# Experimental Setup: in PEG-400, 308.15 K

Record Smiles	solubility (mole fraction)
CN1C(C(=O)Nc2ccccn2)=C(O)c2sc(Cl)cc2S1(=O)=O	0.0112

###

# Experimental Setup: in water, 298.15 K
Property Measured: solubility (mole fraction)

Record Smiles	Property Measured	Numeric Result
CN1C(C(=O)Nc2ccccn2)=C(O)c2sc(Cl)cc2S1(=O)=O	solubility (mole fraction)	2.9e-06
